For each of the compounds below, state its viability, T/C.
System: 422866-222-R5-J1-PDC complex spheroids viability
experiment-description: Anticancer human tumor 422866-222-R5-J1-PDC patient-derived pancreatic adenocarcinoma cell line growth inhibition [RAS]
protocol-conditions: second compound 0.1 µM; first compound 0.316 µM; active compounds read low
Answer with a number only, understood to be in %.

Query: Provide the documented viability, T/C with 422866-222-R5-J1-PDC complex spheroids viability as the system for CCN1CCN(Cc2ccc(Nc3ncc(F)c(-c4cc(F)c5nc(C)n(C(C)C)c5c4)n3)nc2)CC1 + C=CC(=O)N1CCN(c2nc(OCC3CCCN3C)nc3c(F)c(-c4nc(N)cc(C)c4C(F)(F)F)c(Cl)cc23)C(C)C1
Response: 24.5

Query: Observed viability, T/C on 422866-222-R5-J1-PDC complex spheroids viability for CC(C)NCC(C(=O)N1CCN(c2ncnc3c2C(C)CC3O)CC1)c1ccc(Cl)cc1 (stereo not given) + C#Cc1c(F)ccc2cc(O)cc(-c3ncc4c(N5CC6CCC(C5)N6)nc(OCC56CCCN5CC(F)C6)nc4c3F)c12 , please.
Response: 78.3

Query: So what viability, T/C did CC1(O)CCCC1n1c(=O)c(C(F)F)cc2cnc(NC3CCN(S(C)(=O)=O)CC3)nc21 (stereo not given) + C#Cc1c(F)ccc2cc(O)cc(-c3ncc4c(N5CC6CCC(C5)N6)nc(OCC56CCCN5CC(F)C6)nc4c3F)c12 get with 422866-222-R5-J1-PDC complex spheroids viability?
Response: 72.5

Query: Identify the measured viability, T/C of CC(Nc1ccc2c(c1)OCCn1cc(N3C(=O)OCC3C(F)F)nc1-2)C(N)=O (stereo not given) + C#Cc1c(F)ccc2cc(O)cc(-c3ncc4c(N5CC6CCC(C5)N6)nc(OCC56CCCN5CC(F)C6)nc4c3F)c12 for 422866-222-R5-J1-PDC complex spheroids viability.
Response: 30.9

Query: Param readout= viability, T/C; system= 422866-222-R5-J1-PDC complex spheroids viability; entry= CC(Nc1ccc2c(c1)OCCn1cc(N3C(=O)OCC3C(F)F)nc1-2)C(N)=O (stereo not given) + C=CC(=O)N1CCN(c2nc(OCC3CCCN3C)nc3c(F)c(-c4nc(N)cc(C)c4C(F)(F)F)c(Cl)cc23)C(C)C1 ; returns value.
Response: 9.29

====

System: 422866-222-R5-J1-PDC complex spheroids viability
experiment-description: Anticancer human tumor 422866-222-R5-J1-PDC cell line growth inhibition [RAS];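 note: spheroids exposed to compounds for 7 days; 100% = DMSO vehicle control viability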
protocol-conditions: second compound 0.003 µM; first compound 0.0316 µM; active compounds read low
property-measured: viability, T/C (%)
Numbers only here, please. The scale is %.

Query: Returns the measured viability, T/C for the input molecule. Input: C[C@@H](NC(=O)c1ncnc(N)c1Cl)c1ncc(C(=O)Nc2cc(C(F)(F)F)c(Cl)cn2)s1 + CCn1c(-c2cccnc2C(C)OC)c2c3cc(ccc31)N1CCOC(CC(NC(=O)C(C(C)C)N(C)C(=O)C3(F)CCN(C(=O)C#CC(C)(C)N(C)C)CC3)C(=O)N3CCCC(N3)C(=O)OCC(C)(C)C2)C1
Response: 25.3

Query: Quick one: viability, T/C of CC(C)n1nc(-c2ccc3oc(N)nc3c2)c2c(N)ncnc21 + CCn1c(-c2cc(N3CCN(C)CC3)cnc2C(C)OC)c2c3cc(ccc31)-c1csc(n1)CC(NC(=O)C1CC1C)C(=O)N1CCCC(N1)C(=O)OCC(C)(C)C2 ?
Response: 14.3

Query: viability, T/C for CC(Nc1ccc2c(c1)OCCn1cc(N3C(=O)OCC3C(F)F)nc1-2)C(N)=O (centres undefined) + CCn1c(-c2cccnc2C(C)OC)c2c3cc(ccc31)N1CCOC(CC(NC(=O)C(C(C)C)N(C)C(=O)C3(F)CCN(C(=O)C#CC(C)(C)N(C)C)CC3)C(=O)N3CCCC(N3)C(=O)OCC(C)(C)C2)C1 ?
Response: 14.5

Query: Which viability, T/C value belongs to CC(Nc1ccc2c(c1)OCCn1cc(N3C(=O)OCC3C(F)F)nc1-2)C(N)=O (centres undefined) + CCn1c(-c2cc(N3CCN(C)CC3)cnc2C(C)OC)c2c3cc(ccc31)-c1csc(n1)CC(NC(=O)C1CC1C)C(=O)N1CCCC(N1)C(=O)OCC(C)(C)C2 ?
Response: 16.9
